- test_target: MBP-GlnR (Mycobacterium smegmatis (SMR5?)) (UniProt A0R4C4)
- Sequence: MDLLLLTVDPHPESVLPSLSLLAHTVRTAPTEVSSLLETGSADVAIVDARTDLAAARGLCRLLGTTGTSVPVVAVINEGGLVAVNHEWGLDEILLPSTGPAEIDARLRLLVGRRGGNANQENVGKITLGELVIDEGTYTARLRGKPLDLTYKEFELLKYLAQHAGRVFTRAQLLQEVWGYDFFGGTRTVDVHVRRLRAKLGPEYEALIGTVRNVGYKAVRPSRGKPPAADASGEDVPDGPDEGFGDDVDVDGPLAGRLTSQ
- experiment_notes: EMSA
- test_settings: GlnR: DIG Gel Shift Kit (Roche) buffer, 6% native PAGE, 0.5x TBE; AmtR: 20 mM Tris-HCl pH 7.9, 25 mM KCl, 1 mM DTT, 5 mM MgCl2, 0.5 mg/ml BSA, 5% glycerol …
recorded_metric: binding

>  <sequence>
CAAACATCTCCTCACGGTGGCGGCTCGAAACAAGCCGTTCACTCGCAGTAACCGACGTTTCTGTTACGGAGATGGTCGCCAAGTGTTGCAGCGTGGTTAAAACTCAAACCGCGCTTTACAGCGGGTTGCCCCATCGGCCCGTGAACGCAACCTGCTCAAGTGCCAGACGTTCACGCGGGCGGCTGTCGCGTTCGGCGATGGCCTCGTCGGCCGTCGCGTAGTCACCGAGGTGTCCCAGCG (double strand) [amt1 upstream]

>  <test_target>
MBP-GlnR (Mycobacterium smegmatis (SMR5?)) (UniProt A0R4C4)

>  <recorded_metric>
binding

>  <reading>
binds

$$$$
>  <sequence>
CATGTGCCACCGTCGCGGCACGCGCGCCGACGAGTTCGCGCGCAGCCGCGGGCAGTTCGGCCGTGGCGGCGCGCAGACCGGCCACCGAGGTCGCCGCGTCGATGTGGCGCTGCACGAGGTCGGGGGCGGGCATACCGGCGATTGTGACAGGCCCACGGGCGGTGAGGGTTCTGCAACCGAATGCTTACCGACGGCTACATGAACGAAACATTCGGGTGACGCCGAGGACACGCGCCCATTGTTATCTGTCATCTGACAGGTAAGAGCTGGCGGCAGCGCCCCTAGCCAGAGAGAAAACCC (double strand) [msmeg_2184 upstream (GlnR probe)]

>  <test_target>
MBP-GlnR (Mycobacterium smegmatis (SMR5?)) (UniProt A0R4C4)

>  <recorded_metric>
binding

>  <reading>
binds

$$$$

----------
- test_target: MBP-GlnR (Mycobacterium smegmatis (SMR5?)) (UniProt A0R4C4)
- Sequence: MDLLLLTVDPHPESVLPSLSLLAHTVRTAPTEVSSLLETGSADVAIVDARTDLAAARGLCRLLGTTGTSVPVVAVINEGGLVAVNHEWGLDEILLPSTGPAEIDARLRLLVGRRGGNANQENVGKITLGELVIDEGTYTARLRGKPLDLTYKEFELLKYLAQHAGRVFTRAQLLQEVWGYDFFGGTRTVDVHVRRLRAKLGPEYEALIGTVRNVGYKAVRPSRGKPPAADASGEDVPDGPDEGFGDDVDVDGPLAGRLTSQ
- experiment_notes: EMSA
- test_settings: GlnR: DIG Gel Shift Kit (Roche) buffer, 6% native PAGE, 0.5x TBE; AmtR: 20 mM Tris-HCl pH 7.9, 25 mM KCl, 1 mM DTT, 5 mM MgCl2, 0.5 mg/ml BSA, 5% glycerol …
recorded_metric: binding

>  <sequence>
CCGGATGTTCCTTTCAGCTCTGCAGATTCGGGTGCCGTCAGTCCCAGTGCGCCTTGAAACCCAGTGCCGGGACGGTCTCCCCCAGCCCGGGTGTGGAGGCCTTGCGGATCAGGGCCAGTGTCTCGGCATACGTGGTGTGGTTCTCCGCGAGCCGCTCGGCGGGCACGGGCAGGCCCGCGAACTCGAACGCCGCGGAAATCTGTTCCTGCGATGGCATGAAATCGGACATGGTTCTCCTCGCTCTCAGAGGTTGGGGGTGAAGTCGACGAAACCGGCGATCCGCTCGAAGGCCCGGCCTG (double strand) [msmeg_1090 upstream]

>  <reading>
no binding

$$$$
>  <sequence>
AACGGTGTGCTTCCTCCGCTGTAGGTGGATCACCGCGTGAAGCGGGTGACCGGTGCAGGGTCGGCGCAACTTACTGCGCTTGGAAAATGCTCGCGCAGGAACGTTTCGGTGGATCCCGTCGGCAATGTCGGTGACGTTAACTCTGCACGGCCCCGCGTTACGTTGTGGTGACCTGACGCAACGGATTTCGTTGTGTGTCCGGTAGGCCCGCGTGACGACGAACCCGGCCGGCCGATGTTCGGCCGACCGGGTCGTCACGAGGTCACGGCTA (double strand) [msmeg_2526 upstream]

>  <reading>
binds

$$$$
>  <sequence>
CCCAGCTCGCCACTCTCGATGGTGGCCAGCACCAGGGACTTCTCGGGCACGAACCCGAGCACGGCGGGCAGCGCCGCGATCAACGATCCGGGCCGGTTGATACGAAAATCCGGTGTGTGCGGTGAAGGTGTCATGTGCCGACCGTGGCAACCGGCGCCGACGCCGTTCACCCCGAAAACCGGCTGCGACGAGTGGCTGTGGACGAAATCGGCTCTGGGGACAACTTCCGAAACAAACTGTTCACGCGCCATTGCGCGTCTCCGGCGTGCACGCGCGCCGACAGCGGCGTACACACTGACC (double strand) [msmeg_2748 upstream]

>  <reading>
no binding

$$$$
>  <sequence>
GTGGCGCGGCAGGGCGGCCACGGGCAGGCCCTGCTGGTCTTCGACACCGGTGACGGCCGCACGCTGCAGACCCATCCGCTTCCCGAGGCCACCGGCTGGCCGGTCGGGGTATCGATCGGCCACGACGGCCGCGTGGTCACCGCGACGAGTGACGGGCAAGTGTATGGCTTCTCACCGGCATGATGCCGGAAGTTTTACAGGGAATTGACGAAATCTCCACAGAAAGTGGTGGGCTTCGTGTGAGGATTTGGCGCGGCAACCGTGCAAGATCAATGAATTTCTGGGGGAAGGCAATAACCA (double strand) [msmeg_1052 upstream]

>  <reading>
no binding

$$$$

----------
- test_target: MBP-GlnR (Mycobacterium smegmatis (SMR5?)) (UniProt A0R4C4)
- Sequence: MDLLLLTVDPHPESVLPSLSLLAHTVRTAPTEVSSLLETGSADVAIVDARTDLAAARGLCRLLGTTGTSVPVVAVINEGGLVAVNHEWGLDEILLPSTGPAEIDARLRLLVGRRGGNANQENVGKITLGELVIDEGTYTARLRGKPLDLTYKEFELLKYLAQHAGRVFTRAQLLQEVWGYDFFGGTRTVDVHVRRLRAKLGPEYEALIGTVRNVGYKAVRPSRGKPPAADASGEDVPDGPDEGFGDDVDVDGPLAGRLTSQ
- experiment_notes: EMSA
- test_settings: GlnR: DIG Gel Shift Kit (Roche) buffer, 6% native PAGE, 0.5x TBE; AmtR: 20 mM Tris-HCl pH 7.9, 25 mM KCl, 1 mM DTT, 5 mM MgCl2, 0.5 mg/ml BSA, 5% glycerol …
recorded_metric: binding

>  <sequence>
GCCCTCCGGGCGGTATCTGCGCCTGAACTTCTCCGGGCCGGAGCCGGACCGGTTCGAGGAGGCGGCGCGCGTGATCGGACGGTCGCTGCGCAGACAGCTGTGACCCGGCGGTTGTGGCCTGACTGTGGTCCGGAGAGCTCACCGGTCGGGGACCTCACATGTGCGTTGCCGAAGACGTGAGCACACCGTGATGGGGGCTTCACACAGCGCGACATCGCGGCAATATCGGGTTCTTAGCCTCGCCCTATG (double strand) [nirB upstream]

>  <binding>
no binding

$$$$
>  <sequence>
CCGCGACGTCGACCGCGCGCCCGGTCACCGGGCCCGGACCCGGCAAGGTGGTCGTGGTGTCGACGACAGGGGACCCGGCGACGCCGTACCAGGCCGGTGTGGACCTCGCCCGGCAAATGGGCGCGGCCCTGATCAGTTTCGACGGTGCGCAGCACACCGTGGTGTTCAACGGAGATGCCTGCGTCGACACCGCGGTGTTGCGCTTCCTGACCGATCTGCAGTCGCCCCCGGGCAACCTTGCCTGCTAGCTCTTGCACCCCCGTAACACAGATTTAACAGCCGGTGCATACGCTGCGGAGC (double strand) [glnA2 upstream]

>  <binding>
binds

$$$$
>  <sequence>
GGGTCTCTCCAGGGAGGCGATGAGGGTGCGGGCGGCGACAGTGCCGGGAGCCGGATGATCGGCTGGGTCAATTACAGGCCCCGGCCATTGCCGTGTGGTTAGGGATGGACTACTTCTGAATTGCCGAAATCTCACAGCGGCAATGTGCTCGTAATAAGTGCAGCATGCGCCTTGACCTCAACCTCACTTGAGGTGCCAGGCTGGCTCTCATGACATGTGGACTCCAGTGGCCAGAGGCGGTAAACCGCCGCGAACCCGGGGGTAAACCCCCTGGGGACCTGGATCGGCACGCAGTAACTT (double strand) [msmeg_0572 upstream]

>  <binding>
binds

$$$$
>  <sequence>
GGACCGGGACCGGATAGCCAGGATCCCAACCGGGAGCCGTTTGTGCGGGCCATGATGTCAGGATAGGCGCGTGCGGATGTCCGGCCGCCGGGTGCCACGTCGCGACGCGGTTCACACCGATGTGTGCTGGAGTTCACCGGCGGACACGCTCAAACCGATTGCGTAACGTCGGCGCAACATCGGGTTGACGACTGCGCAACATCGTGTCCTTAGCGTCAACGCGCGGGTTACCAGTAAAGGAGAACACTCA (double strand) [glnA upstream]

>  <binding>
binds

$$$$
>  <sequence>
TGAGGGTCCTAATCCGTCCCTGAACAGGGAAATTACCGGACCATTTTTTGGTCTGGTCTGAGAATGTCGCCGACGACGTTGTGCTGCGACGCTGGCAATTGTTACCGCGCCCAGATTCGTTGGTCAACTTGGAATTACCTGTACATATGCGGGTTTGTTGCAAACATGTTTCGAAGCTGGGAGCCATGCAACGGCAGCGTAAAAATTCTCGATTTGGTCTGCTCTGGTTCGGCTTTTGGTCCACACTCTTCGACATGCCGGGACTTCCAGCTGACCACGAACTGTTCGCGCGCGCCGCAC (double strand) [msmeg_0781 upstream]

>  <binding>
binds

$$$$

I am curious: what binding value has been reported for GTGTGAACCTCCTTGGGAAGTGCGCCGACGGATCGGCCTCCCGATGAGATTCTGTTGCCGGCGTTTCGCCGGTGCTGCCGTTGCGTTTCCGGAAAGTGAACGCAATCCCGATCACTGTTACGCTCATGTTTCCCGCCGACAAAGCACAGGTCGTTGCACAGCCAACGCCGGCTGTAACGCCCCGCAAACACTCCCGCTGCGGCGCCGCGAACCCGACGTC (double strand) [amtB upstream] ? binds

I am curious: what binding value has been reported for GGTGCCGACCGCCCCGACGACGAGCGCGGCCACCGCCGCGACGAACCCGACCACCAGTCTGCGCACCGGGACATTGTTGCCCACGAGACCGGCAAAGATTCGCTCGGCGCGGCTGACGAGCAGGTGAGGCGTTATCCTCGTAACACCAAAGGCCGGTAACGGCTACATGTCAGTCATGAATCCGGAAGATCACCCGACACCGGCGTCTGTGTTCTCCCGCAGAGATTCCTGACGAGCCGGGAGGACTTG (double strand) [glnR upstream] ? no binding

I am curious: what binding value has been reported for AGGCTTTTCGCCGGCTGCTGTGATCACACCAAGATCGTCGGCGCAGTCGATGACCTAGATGTTGTCGTGAAGTTTCAAGAATGTGACGTCATCAGTCGGCGGCTGCGTCGACCGCCAGCAGCAGTCGCAACGCGCCCGCATCGCGAGGGACTGCCGGGTCGAGGCCGGTACTGCTGGTCACCCTGGCCAGTCGGTTGATGACGGTGTTGCGATGGCAGTAGAGCCTGCGAGCGGTCTCGGTGACGGAACCGGTGTCGAGATAGATGCGCAGCGTGTCCGTGAGCAAGGTCTGATCGCGCG (double strand) [msmeg_3400 upstream] ? binds

I am curious: what binding value has been reported for GGTGGCGGCGAGTTCGATACCGCTGTCGCTCAACGTGACCGGCGGCCACCCCAATCCGGTGAGGTCCACGAGCCTGCGCAGCTGAGGTTGGGGCTCGGAAAACAGCCAGGTCCCACCGGCCAACACCGCGTCGCCGGCCCCCAGCGGCCACACCTCCTCGCGACGGGTCGGCCGGTCCACCACCTCGACGGTGTTGAGGTCCATTCCCGCGACCGTAACCAAAGTGAACGCGCCGTGCACCATGAACCGTGGCACAACGCTCGGCGTGCGAACCGCCGCGATCTGTCCGATTCTTAGTCG (double strand) [msmeg_1293 upstream] ? no binding

I am curious: what binding value has been reported for GAACAACCTTTCCCGATGATTGCAGCGCATTTTGGGCCGATCGCCTCGGCCGCGGTGCAGGAGGTTAAACACACTGTGCTGGTGTCGAATCGGGACGTTAGAGCGCGCGTGTTACTGCCAAATGTCTGTGTGTGACGAACAAATTAACCTCGACATGACATGCCGCTGGTTTGCCGCCGGTTCTCGACGCCGTGACACCGGCGTGGCGTGTGTAACGGGGAGGTAGCCTGCGTCGATATG (double strand) [urtA upstream] ? binds
